Listed compounds paired with reported DILI_severity_class
Organism: Homo sapiens
methodDescription: Liver toxicity in human assessed as induction of drug-induced liver injury by measuring severity class index
Just the number.

Example entries begin here.
C[N+]1(C)CCCC(OC(=O)C(O)(c2ccccc2)c2ccccc2)C1 (stereo not given) [MEPENZOLATE]; 0
CN(C)CCOC(c1ccccc1)c1ccccc1 [DIPHENHYDRAMINE]; 0

Need DILI_severity_class, item Cc1nnc2n1-c1ccc(Cl)cc1C(c1ccccc1)=NC2 [ALPRAZOLAM] 7

Need DILI_severity_class, item O=C1CC[C@@]2(O)[C@H]3Cc4ccc(O)c5c4[C@@]2(CCN3CC2CC2)[C@H]1O5 [NALTREXONE] 3

Need DILI_severity_class, item NC(N)=Nc1nc(CSCCN/C=N/S(=O)(=O)c2ccc(Br)cc2)cs1 [EBROTIDINE] 8

* * *

Species on record: Homo sapiens
methodDescription: Liver toxicity in human assessed as induction of drug-induced liver injury by measuring severity class index
Listed compounds paired with reported DILI_severity_class

NCCS; 3
CC(C)C[C@H]1C(=O)N2CCC[C@H]2[C@]2(O)O[C@](NC(=O)[C@@H]3C=C4c5cccc6[nH]c(Br)c(c56)C[C@H]4N(C)C3)(C(C)C)C(=O)N12; 3
CCCCCCCCNC(C)C(O)c1ccc(SC(C)C)cc1 (stereo not drawn); 8
C[C@]12CC[C@@H]3c4ccc(O)cc4C[C@@H](CCCCCCCCC[S+]([O-])CCCC(F)(F)C(F)(F)F)[C@H]3[C@@H]1CC[C@@H]2O (stereo partly drawn); 7
CN(C)CCCC1(c2ccc(F)cc2)OCc2cc(C#N)ccc21 (stereo not drawn); 7
Cc1cnc(C(=O)NCCc2ccc(S(=O)(=O)NC(=O)NC3CCCCC3)cc2)cn1 [GLIPIZIDE]; 3
N=C(N)NC(=O)c1nc(Cl)c(N)nc1N [AMILORIDE]; 3
CN(C)CCCN1c2ccccc2Sc2ccc(Cl)cc21; 2
CCOC(=O)CN[C@@H](C(=O)N1CC[C@H]1C(=O)NCc1ccc(/C(N)=N\O)cc1)C1CCCCC1; 8
CC1=C(CC(=O)O)c2cc(F)ccc2/C1=C\c1ccc([S+](C)[O-])cc1 (stereo not drawn); 8

Need DILI_severity_class, item Cc1ncc(CO)c(CO)c1O 0

Need DILI_severity_class, item CC[C@@H]([C@H](C)O)n1ncn(-c2ccc(N3CCN(c4ccc(OC[C@@H]5CO[C@@](Cn6cncn6)(c6ccc(F)cc6F)C5)cc4)CC3)cc2)c1=O 8

Need DILI_severity_class, item CC[C@H]1OC(=O)[C@H](C)C(=O)[C@H](C)[C@@H](O[C@@H]2O[C@H](C)C[C@H](N(C)C)[C@H]2O)[C@](C)(OC)C[C@@H](C)C(=O)[C@H](C)[C@H]2N(CCCCn3cnc(-c4cccnc4)c3)C(=O)O[C@]12C 8

Need DILI_severity_class, item CN[C@@H]1CCc2[nH]c3ccc(C(N)=O)cc3c2C1 0

Need DILI_severity_class, item Cc1ccc(Nc2c(F)cccc2Cl)c(CC(=O)O)c1 8

* * *

Species on record: Homo sapiens
methodDescription: Liver toxicity in human assessed as induction of drug-induced liver injury by measuring severity class index
measuredEndpoint: DILI_severity_class
Just the number.

Example entries begin here.
Cc1onc(-c2ccccc2Cl)c1C(=O)N[C@@H]1C(=O)N2[C@@H]1SC(C)(C)[C@@H]2C(=O)O; 3
CCN1CC(CCN2CCOCC2)C(c2ccccc2)(c2ccccc2)C1=O (stereo not drawn); 0
C[C@]12CC[C@@H]3c4ccc(OC(=O)N(CCCl)CCCl)cc4CC[C@H]3[C@@H]1CC[C@@H]2O; 4
CC1(C)S[C@@H]2[C@H](NC(=O)[C@H](N)c3ccc(O)cc3)C(=O)N2[C@H]1C(=O)O; 5
COc1ccnc(C[S+]([O-])c2nc3ccc(OC(F)F)cc3[nH]2)c1OC (stereo not drawn); 3

Need DILI_severity_class, item CN(C)CCC=C1c2ccccc2COc2ccccc21 [DOXEPIN] 4

Need DILI_severity_class, item COc1cc(C(=O)NCc2ccc(OCCN(C)C)cc2)cc(OC)c1OC [TRIMETHOBENZAMIDE] 5

Need DILI_severity_class, item NCC(CC(=O)O)c1ccc(Cl)cc1 (stereo not drawn) 3

* * *

Species: Homo sapiens
methodDescription: Liver toxicity in human assessed as induction of drug-induced liver injury by measuring verified drug-induced liver injury concern status
measuredEndpoint: DILI_Concern

CCN(CC)CCN1C(=O)CN=C(c2ccccc2F)c2cc(Cl)ccc21; Less-Dili-Concern
CN[C@@H](C)Cc1ccccc1; No-Dili-Concern
CC[C@@H](CO)NCCN[C@@H](CC)CO; Most-Dili-Concern
NC(CO)(CO)CO; Ambiguous-Dili-Concern
Cc1nc(-c2ccc(OCC(C)C)c(C#N)c2)sc1C(=O)O; Most-Dili-Concern

Need DILI_Concern, item O=C(O)C[C@H](O)C[C@H](O)/C=C/c1c(C2CC2)nc2ccccc2c1-c1ccc(F)cc1 Ambiguous-Dili-Concern

Need DILI_Concern, item CC[C@H]1OC(=O)[C@H](C)[C@@H](O[C@H]2C[C@@](C)(OC)[C@@H](O)[C@H](C)O2)[C@H](C)[C@@H](O[C@@H]2O[C@H](C)C[C@H](N(C)C)[C@H]2O)[C@](C)(O)C[C@@H](C)CN(C)[C@H](C)[C@@H](O)[C@]1(C)O Less-Dili-Concern

* * *

Species on record: Homo sapiens
methodDescription: Liver toxicity in human assessed as induction of drug-induced liver injury by measuring verified drug-induced liver injury concern status
measuredEndpoint: DILI_Concern

Example entries begin here.
Cc1ncc(C[n+]2csc(CCO)c2C)c(N)n1 [THIAMINE ION]; No-Dili-Concern
NC(=O)CC[C@H](N)C(=O)O [GLUTAMINE]; Ambiguous-Dili-Concern
COc1ccccc1Oc1c(NS(=O)(=O)c2ccc(C(C)(C)C)cc2)nc(-c2ncccn2)nc1OCCO [BOSENTAN]; Most-Dili-Concern
O=C1NC(=O)C(c2ccccc2)(c2ccccc2)N1 [PHENYTOIN]; Most-Dili-Concern

Need DILI_Concern, item CCCC(C)(COC(N)=O)COC(=O)NC(C)C (configuration not stated) [CARISOPRODOL] No-Dili-Concern

Need DILI_Concern, item CC[C@]1(O)C[C@@H]2CN(CCc3c([nH]c4ccccc34)[C@@](C(=O)OC)(c3cc4c(cc3OC)N(C)[C@H]3[C@@](O)(C(=O)OC)[C@H](OC(C)=O)[C@]5(CC)C=CCN6CC[C@]43[C@@H]65)C2)C1 [VINBLASTINE] No-Dili-Concern

Need DILI_Concern, item Clc1cccc(Cl)c1N=C1NCCN1 [CLONIDINE] Ambiguous-Dili-Concern

Need DILI_Concern, item CC(COc1ccccc1)NN (configuration not stated) [PHENOXYPROPAZINE] Most-Dili-Concern

Need DILI_Concern, item CN(C)C/C=C(/c1ccc(Br)cc1)c1cccnc1 [ZIMELDINE] Most-Dili-Concern

Need DILI_Concern, item COc1cc(Cc2cnc(N)nc2N)cc(OC)c1OC [TRIMETHOPRIM] Less-Dili-Concern

Need DILI_Concern, item CCN(CC)CC(=O)Nc1c(C)cccc1C [LIDOCAINE] No-Dili-Concern

Need DILI_Concern, item C[C@H](/C=C/[C@H](C)C(C)(C)O)[C@H]1CC[C@H]2/C(=C/C=C3C[C@@H](O)C[C@H](O)C3)CCC[C@]12C [PARICALCITOL] Ambiguous-Dili-Concern

Need DILI_Concern, item O=C(O)COc1nn(Cc2ccccc2)c2ccccc12 [BENDAZAC] Most-Dili-Concern

Need DILI_Concern, item Nc1ccn([C@@H]2O[C@H](CO)[C@@H](O)C2(F)F)c(=O)n1 [GEMCITABINE] Most-Dili-Concern

Need DILI_Concern, item CCCCC(F)(F)[C@@]1(O)CC[C@H]2[C@@H](CC(=O)[C@@H]2CCCCCCC(=O)O)O1 [LUBIPROSTONE] No-Dili-Concern

Need DILI_Concern, item CC[C@H]1OC(=O)[C@H](C)C(=O)[C@H](C)[C@@H](O[C@@H]2O[C@H](C)C[C@H](N(C)C)[C@H]2O)[C@](C)(OC)C[C@@H](C)C(=O)[C@H](C)[C@H]2N(CCCCn3cnc(-c4cccnc4)c3)C(=O)O[C@]12C [TELITHROMYCIN] Most-Dili-Concern

Need DILI_Concern, item CN1CCN2c3ncccc3Cc3ccccc3C2C1 (configuration not stated) [MIRTAZAPINE] Less-Dili-Concern

* * *

Species on record: Homo sapiens
methodDescription: Liver toxicity in human assessed as induction of drug-induced liver injury by measuring verified drug-induced liver injury concern status
measuredEndpoint: DILI_Concern

Example entries begin here.
CC(C)(C(=O)c1cccnc1)c1cccnc1; No-Dili-Concern
COc1ccc2c3c1O[C@H]1C[C@@H](O)C=C[C@@]31CCN(C)C2; Ambiguous-Dili-Concern
CC(=O)CCCCn1c(=O)c2c(ncn2C)n(C)c1=O; Ambiguous-Dili-Concern
COc1cc([C@@H]2c3cc4c(cc3[C@@H](O[C@@H]3O[C@@H]5CO[C@@H](C)O[C@H]5[C@H](O)[C@H]3O)[C@H]3COC(=O)[C@H]23)OCO4)cc(OC)c1O [ETOPOSIDE]; Less-Dili-Concern
CCCCCCCC/C=C\CCCCCCCC(=O)O.NCCO [ETHANOLAMINE OLEATE]; No-Dili-Concern
CC=CC1=C(C(=O)O)N2C(=O)[C@@H](NC(=O)[C@H](N)c3ccc(O)cc3)[C@H]2SC1; Less-Dili-Concern

Need DILI_Concern, item COCCOC(=O)C1=C(C)NC(C)=C(C(=O)OC(C)C)C1c1cccc([N+](=O)[O-])c1 (stereo not drawn) Ambiguous-Dili-Concern
